Biological target: rat orexin-1 receptor (Rattus norvegicus)
Sequence (P56718 whole entry): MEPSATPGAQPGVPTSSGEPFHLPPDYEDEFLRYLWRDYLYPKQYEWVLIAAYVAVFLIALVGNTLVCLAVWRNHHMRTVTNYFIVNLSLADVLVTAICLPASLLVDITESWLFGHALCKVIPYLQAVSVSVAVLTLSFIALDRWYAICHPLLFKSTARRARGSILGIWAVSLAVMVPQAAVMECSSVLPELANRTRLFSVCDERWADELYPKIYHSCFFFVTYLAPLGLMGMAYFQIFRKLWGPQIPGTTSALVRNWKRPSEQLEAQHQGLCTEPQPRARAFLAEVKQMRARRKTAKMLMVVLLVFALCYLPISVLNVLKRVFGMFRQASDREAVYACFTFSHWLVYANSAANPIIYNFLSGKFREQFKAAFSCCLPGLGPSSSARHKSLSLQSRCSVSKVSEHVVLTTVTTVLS
Experiment: FLIPR Ca2+ flux assay, OX1R
Settings: CHO cells expressing the rat orexin-1 receptor; agonist 70 pM Ala-6,12 orexin-A
So I've got a bunch of compounds here, and I need their pIC50 values.
Value format note: pIC50 is -log10 of concentration (mol/L); just state the number.

Identify measured pIC50 associated with Cc1cc(C)nc(N2CC3CC2CN(C(=O)c2cccnc2N(C)CC(F)F)C3)n1 (single isomer, unassigned) [Example 47]
5.12

// Input: Cc1cc(C)nc(N2CC3CC2CN(C(=O)c2ccccc2OC(C)C)C3)n1 (stereo not drawn) [Example 16] . Output its pIC50 only.
6.01

Return value of pIC50 for input Cc1cc(C)nc(N2CC3CC2CN(C(=O)c2ccccc2C2CC2)C3)n1 (stereo not drawn) [Example 11] , no commentary.
6.21

Give pIC50 for Cc1cc(C)nc(N2CC3CC2CN(C(=O)c2cccnc2OCCC(F)(F)F)C3)n1 (stereo not drawn) [Example 44]
6.03
